Tested on: Chenopodium album
Assay: Test Example 3: herbicidal effect test by treatment of dry field farming soil (one day after seeding)
Assay type: in vivo
Details: 120 g/10a active ingredient, evaluated 14 days after treatment
Procedure: This test was conducted in a double system per one agent solution concentration area, and the herbicidal rates (%) were determined by the following equation (Math. 1) on 14 days after the treatment with the agents. […] Pots with a size of 36 cm^2 were filled with a dry field farming soil (alluvium). […] The herbicidal effects were evaluated by the same standard as that in Test Example 1 on 14 days after the treatment with the agents. […]
Measured quantity: herbicidal rate, Chenopodium album (%)
Express your answer in %, writing the number without its unit.

CSCCn1oc(=O)c(Cc2ccccc2N(S(C)(=O)=O)S(=O)(=O)C(F)(F)F)c1C: 90
Cc1c(Cc2ccccc2NS(=O)(=O)C(F)(F)F)c(=O)on1C(C)(C)C: 90
Cc1c(Cc2ccccc2NS(=O)(=O)C(F)(F)F)c(=O)on1Cc1ccccc1: 30
Cc1c(Cc2ccccc2N(S(=O)(=O)C(F)(F)F)S(=O)(=O)C(F)(F)F)c(=O)on1Cc1ccccc1: 40
Cc1c(Cc2ccccc2N(S(=O)(=O)C(F)(F)F)S(=O)(=O)C(F)(F)F)c(=O)on1CCC(C)(C)C: 90

Asked: Complete the entry with herbicidal rate, Chenopodium album for COC(=O)N(c1ccccc1Cc1c(C)n(CCSC)oc1=O)S(=O)(=O)C(F)(F)F
Given back: 90

Asked: Complete the entry with herbicidal rate, Chenopodium album for Cc1c(Cc2ccccc2N(S(C)(=O)=O)S(=O)(=O)C(F)(F)F)c(=O)on1C(C)C
Given back: 60

###

test system: Echinochloa crus-galli; experiment: Test Example 2: herbicidal effect test by treatment during growing period in paddy rice cultivation (seven days after seeding); type: in vivo; conditions: 120 g/10a active ingredient, assessed 14 days after treatment, dry weight vs untreated area
Measured quantity: Herbicidal rate (%) Echinochloa crus-galli
Express your answer in %, writing the number without its unit.

Completed entries (count: 3):
CCOC(=O)N(c1ccccc1Cc1c(C)n(C(C)(C)C)oc1=O)S(=O)(=O)C(F)(F)F [Compound 1-604]: 90
Cc1c(Cc2ccccc2NS(=O)(=O)C(F)(F)F)c(=O)on1C(C)c1ccc(F)cc1 (stereo not drawn) [Compound 1-204]: 80
Cc1c(Cc2ccccc2N(S(C)(=O)=O)S(=O)(=O)C(F)(F)F)c(=O)on1CC(C)C [Compound 1-892]: 90

Asked: Complete the entry with Herbicidal rate (%) Echinochloa crus-galli for Cc1c(Cc2ccccc2N(C(=O)CC(C)C)S(=O)(=O)C(F)(F)F)c(=O)on1C(C)c1ccccc1 (stereo not drawn) [Compound 1-359]
Given back: 90

Asked: Complete the entry with Herbicidal rate (%) Echinochloa crus-galli for Cc1c(Cc2ccccc2N(C(=O)Oc2ccccc2)S(=O)(=O)C(F)(F)F)c(=O)on1C(C)(C)C [Compound 1-762]
Given back: 90

Asked: Complete the entry with Herbicidal rate (%) Echinochloa crus-galli for CCCC(c1ccccc1)n1oc(=O)c(Cc2ccccc2N(S(=O)(=O)C(F)(F)F)S(=O)(=O)C(F)(F)F)c1C (stereo not drawn) [Compound 1-1039]
Given back: 100

Asked: Complete the entry with Herbicidal rate (%) Echinochloa crus-galli for Cc1c(Cc2ccccc2N(S(=O)(=O)C(F)(F)F)S(=O)(=O)C(F)(F)F)c(=O)on1Cc1ccc(OC(F)(F)F)cc1 [Compound 1-1023]
Given back: 40

Asked: Complete the entry with Herbicidal rate (%) Echinochloa crus-galli for Cc1c(Cc2ccccc2NS(=O)(=O)C(F)(F)F)c(=O)on1C(c1ccccc1)C(C)C (stereo not drawn) [Compound 1-213]
Given back: 90

Asked: Complete the entry with Herbicidal rate (%) Echinochloa crus-galli for Cc1c(Cc2ccccc2N(C(=O)OCC(C)C)S(=O)(=O)C(F)(F)F)c(=O)on1CC(C)C [Compound 1-671]
Given back: 90

Asked: Complete the entry with Herbicidal rate (%) Echinochloa crus-galli for COCC(C)n1oc(=O)c(Cc2ccccc2N(C(=O)CC(C)C)S(=O)(=O)C(F)(F)F)c1C (stereo not drawn) [Compound 1-357]
Given back: 90

Asked: Complete the entry with Herbicidal rate (%) Echinochloa crus-galli for Cc1c(Cc2ccccc2N(C(=O)OCC(C)C)S(=O)(=O)C(F)(F)F)c(=O)on1C(C)c1ccccc1 (stereo not drawn) [Compound 1-678]
Given back: 90

Asked: Complete the entry with Herbicidal rate (%) Echinochloa crus-galli for Cc1c(Cc2ccccc2N(C(=O)C2CC2)S(=O)(=O)C(F)(F)F)c(=O)on1C(C)c1ccccc1 (stereo not drawn) [Compound 1-416]
Given back: 90

Asked: Complete the entry with Herbicidal rate (%) Echinochloa crus-galli for CCC(CC)n1oc(=O)c(Cc2ccccc2N(C(=O)C2CC2)S(=O)(=O)C(F)(F)F)c1C [Compound 1-405]
Given back: 90

Asked: Complete the entry with Herbicidal rate (%) Echinochloa crus-galli for Cc1c(Cc2ccccc2NS(=O)(=O)C(F)(F)F)c(=O)on1C(C)c1cccc(Cl)c1 (stereo not drawn) [Compound 1-206]
Given back: 60

Asked: Complete the entry with Herbicidal rate (%) Echinochloa crus-galli for Cn1oc(=O)c(Cc2ccccc2NS(=O)(=O)C(F)(F)F)c1C(F)(F)F [Compound 1-78]
Given back: 40

Asked: Complete the entry with Herbicidal rate (%) Echinochloa crus-galli for C#CCn1oc(=O)c(Cc2ccccc2NS(=O)(=O)C(F)(F)F)c1C [Compound 1-138]
Given back: 90

Asked: Complete the entry with Herbicidal rate (%) Echinochloa crus-galli for CCn1oc(=O)c(Cc2ccccc2N(S(=O)(=O)C(F)(F)F)S(=O)(=O)C(F)(F)F)c1C [Compound 1-960]
Given back: 70

Asked: Complete the entry with Herbicidal rate (%) Echinochloa crus-galli for CCOC(=O)N(c1ccccc1Cc1c(C)n(C(C)CC)oc1=O)S(=O)(=O)C(F)(F)F (stereo not drawn) [Compound 1-605]
Given back: 90

Asked: Complete the entry with Herbicidal rate (%) Echinochloa crus-galli for CSCCn1oc(=O)c(Cc2ccccc2N(S(=O)(=O)C(F)(F)F)S(=O)(=O)C(F)(F)F)c1C [Compound 1-1002]
Given back: 90

Asked: Complete the entry with Herbicidal rate (%) Echinochloa crus-galli for Cc1c(Cc2ccccc2NS(=O)(=O)C(F)(F)F)c(=O)on1Cc1ccccc1F [Compound 1-181]
Given back: 50

Asked: Complete the entry with Herbicidal rate (%) Echinochloa crus-galli for Cc1c(Cc2ccccc2N(S(C)(=O)=O)S(=O)(=O)C(F)(F)F)c(=O)on1C(C)c1ccccc1 (stereo not drawn) [Compound 1-907]
Given back: 90

Asked: Complete the entry with Herbicidal rate (%) Echinochloa crus-galli for Cc1c(Cc2ccccc2NS(=O)(=O)C(F)(F)F)c(=O)on1C(C)c1ccccc1 (stereo not drawn) [Compound 1-203]
Given back: 90

Asked: Complete the entry with Herbicidal rate (%) Echinochloa crus-galli for Cc1c(Cc2ccccc2N(S(=O)(=O)C(F)(F)F)S(=O)(=O)C(F)(F)F)c(=O)on1CC(C)c1ccccc1 (stereo not drawn) [Compound 1-1046]
Given back: 90

Asked: Complete the entry with Herbicidal rate (%) Echinochloa crus-galli for CCCCC(CC)Cn1oc(=O)c(Cc2ccccc2NS(=O)(=O)C(F)(F)F)c1C (stereo not drawn) [Compound 1-130]
Given back: 100

###

test system: broad leaf weeds (Lindernia pyxidaria and Monochoria vaginalis); test: Test Example 1: herbicidal effect test by treatment of rice paddy soil (immediately after seeding); type: in vivo; conditions: Monochoria vaginalis, 120 g/10a active ingredient, dry weight vs untreated area, 14 days after treatment
Measured quantity: Herbicidal rate (%) Monochoria vaginalis
Express your answer in %, writing the number without its unit.

Completed entries (count: 5):
CC(C)c1c(Cc2ccccc2N(S(=O)(=O)C(F)(F)F)S(=O)(=O)C(F)(F)F)c(=O)on1C(C)C: 70
Cc1c(Cc2ccccc2NS(=O)(=O)C(F)(F)F)c(=O)on1CC1CC1: 100
CCCCCC(c1ccccc1)n1oc(=O)c(Cc2ccccc2NS(=O)(=O)C(F)(F)F)c1C (centres unmarked): 80
Cc1c(Cc2ccccc2NS(=O)(=O)C(F)(F)F)c(=O)on1Cc1ccc(SC(F)(F)F)cc1: 100
Cc1c(Cc2ccccc2N(S(=O)(=O)C(F)(F)F)S(=O)(=O)C(F)(F)F)c(=O)on1CC[S+](C)[O-] (centres unmarked): 70

Asked: Complete the entry with Herbicidal rate (%) Monochoria vaginalis for Cc1c(Cc2ccccc2N(S(=O)(=O)C(F)(F)F)S(=O)(=O)C(F)(F)F)c(=O)on1CC1CCCCC1
Given back: 60

Asked: Complete the entry with Herbicidal rate (%) Monochoria vaginalis for CSCCCn1oc(=O)c(Cc2ccccc2N(S(=O)(=O)C(F)(F)F)S(=O)(=O)C(F)(F)F)c1C
Given back: 90

Asked: Complete the entry with Herbicidal rate (%) Monochoria vaginalis for Cc1c(Cc2ccccc2N(S(C)(=O)=O)S(=O)(=O)C(F)(F)F)c(=O)on1CC(C)(C)C
Given back: 90

Asked: Complete the entry with Herbicidal rate (%) Monochoria vaginalis for CCC(C)n1oc(=O)c(Cc2ccccc2N(C(=O)C2CCCCC2)S(=O)(=O)C(F)(F)F)c1C (centres unmarked)
Given back: 90

Asked: Complete the entry with Herbicidal rate (%) Monochoria vaginalis for Cc1c(Cc2ccccc2NS(=O)(=O)C(F)(F)F)c(=O)on1CC(F)(F)F
Given back: 80

Asked: Complete the entry with Herbicidal rate (%) Monochoria vaginalis for CCCC(CC)n1oc(=O)c(Cc2ccccc2NS(=O)(=O)C(F)(F)F)c1C (centres unmarked)
Given back: 100

Asked: Complete the entry with Herbicidal rate (%) Monochoria vaginalis for Cc1c(Cc2ccccc2NS(=O)(=O)C(F)(F)F)c(=O)on1CC1(C)COC1
Given back: 100

Asked: Complete the entry with Herbicidal rate (%) Monochoria vaginalis for CC(C)n1oc(=O)c(Cc2ccccc2NS(=O)(=O)C(F)(F)F)c1C1CC1
Given back: 70

Asked: Complete the entry with Herbicidal rate (%) Monochoria vaginalis for Cc1c(Cc2ccccc2N(S(=O)(=O)C(F)(F)F)S(=O)(=O)C(F)(F)F)c(=O)on1C(C)c1ccccc1Cl (centres unmarked)
Given back: 90

Asked: Complete the entry with Herbicidal rate (%) Monochoria vaginalis for Cc1c(Cc2ccccc2NS(=O)(=O)C(F)(F)F)c(=O)on1C(C)c1ccc(Cl)cc1 (centres unmarked)
Given back: 100
